System: HCT-116 colon
Assay: NCI tumour cell line growth inhibition, 48 h
Listed compounds paired with reported TGI

compound	TGI
CCOc1cc(C2SCC(=O)N2c2ccc3c(c2)Oc2c(Cl)c4c(c(Cl)c2=N3)Oc2cc(N3C(=O)CSC3c3ccc(O)c(OCC)c3)ccc2N=4)ccc1O (configuration not stated)	41.4 µM
C=CCc1cccc2cc(C(=O)Nc3ccc(C)cc3)c(=N)oc12	> 100 µM
COc1ccc(C(=O)c2nc3ccccc3nc2N2CCN(c3ccccc3)CC2)cc1OC	> 100 µM
CCCCCCCC(=O)OC[C@H](C[As](=O)(O)O)OC(=O)CCCCCCC	19.2 µM
O=c1[nH]nc(CNc2ccc(Cl)cc2Cl)c2ccccc12	66.3 µM
CN(/N=C/c1ccccc1O)c1ccc2ccccc2n1	> 100 µM
COc1ccc(NC(=O)C(C#N)=C(SC)SC)cc1	> 100 µM
CC(=O)OC12CC[N+]3(C)CCCCC3C1=Nc1ccccc12 (configuration not stated)	> 100 µM
C1C[OH+]CCNCC[OH+]CC[OH+]CCN1.N.[Cl-].[Pt+4]	> 100 µM
O=C1OC(c2ccc(Cl)cc2)=N/C1=C\c1ccccc1	> 100 µM
CN/N=C(\C(=O)Nc1ccc(C(F)(F)F)cc1[N+](=O)[O-])C(c1cnc2ccc([N+](=O)[O-])cc2n1)[N+](=O)[O-] (configuration not stated)	> 100 µM
CC1(O)C2(c3ccccc3)CCC[N+]1(C)CC2 (configuration not stated)	> 100 µM
O=C(c1ccccc1)N(CCCCNC(=O)C(F)(F)F)CCCNC(=O)C(F)(F)F	> 100 µM
C=CCOc1ccc(N)c([N+](=O)[O-])c1	> 100 µM
COc1ccc(-c2cc(-c3ccc(OC)cc3)nc(NCCCNc3ccnc4cc(Cl)ccc34)n2)cc1	2.76 µM
COc1cc(/C=C2\NC(=O)C3Cc4c(OC)c(C)c(OC)c(OC)c4C2N3C)c(OC)c(C)c1OC (configuration not stated)	> 100 µM
Cc1ccc(N=C2OP(=O)(Nc3ccc(C)cc3)Oc3ccccc32)cc1 (configuration not stated)	> 100 µM
N#CC1(N2CCCC2)CCC2(CC1)OCCO2	> 100 µM
COC(=O)c1sc2c(=O)c(C(=O)OC)c(C(=O)OC)sc2c(=O)c1C(=O)OC	> 100 µM
CC(C)(C)OC(=O)N1CC(C)(C)N2C(=O)C3(CCCO3)C12 (configuration not stated)	> 100 µM
Nc1ccn(CCOC(c2ccccc2)P(=O)(O)O)c(=O)n1 (configuration not stated)	> 100 µM
O=C1NC(=O)C(C(c2ccc([N+](=O)[O-])cc2)C2C(=O)NC(=O)NC2=O)C(=O)N1	> 100 µM
CC1=C(SCCO)C(=O)c2ccccc2C1=O	17.4 µM
Cc1ccc2[nH]c(O)c(N=Nc3ccccc3[N+](=O)[O-])c2c1	12.2 µM
CCN(CC)CCCNc1n[n+]([O-])c2ccccc2[n+]1[O-]	57.3 µM
c1cc(C2=NCCO2)c2ccsc2c1	> 100 µM
N#CC1(C#N)[C@@H]2CCC=C(Sc3ccccc3)[C@@H]21	29.6 µM

This collection of values is drawn from PubChem BioAssay (NCI).
